Molecular target: hα7-wt nAChR (Homo sapiens, UniProt P36544)
Sequence (P36544 23-502): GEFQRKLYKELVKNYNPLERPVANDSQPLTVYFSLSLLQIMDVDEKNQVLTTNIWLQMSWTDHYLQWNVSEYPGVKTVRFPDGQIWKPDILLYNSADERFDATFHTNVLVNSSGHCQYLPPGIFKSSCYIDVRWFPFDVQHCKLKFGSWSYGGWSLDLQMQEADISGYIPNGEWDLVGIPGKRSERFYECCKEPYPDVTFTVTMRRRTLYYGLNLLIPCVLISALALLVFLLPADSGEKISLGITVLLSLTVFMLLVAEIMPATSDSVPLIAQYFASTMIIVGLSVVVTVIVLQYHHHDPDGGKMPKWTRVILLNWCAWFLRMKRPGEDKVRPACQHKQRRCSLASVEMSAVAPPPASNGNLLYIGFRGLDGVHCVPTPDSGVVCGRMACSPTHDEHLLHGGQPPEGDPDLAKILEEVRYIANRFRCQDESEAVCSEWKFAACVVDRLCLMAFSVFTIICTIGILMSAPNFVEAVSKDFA
Assay: Ca2+ flux imaging (FDSS) (Protocol B), potentiation of the choline response
Conditions: Ca2+ assay as described in D.1; "<5" = activity did not reach a top plateau at maximal concentration
Exercise: for every item that follows, state its recorded EC50.
Express it in µM; write the number only.

For hα7-wt nAChR (Homo sapiens, UniProt P36544), provide EC50 of Cc1ccnc(-c2cc(Nc3cc(F)cc(F)c3)nn2CCC(=O)N(C)C)c1 please.
2.75

For hα7-wt nAChR (Homo sapiens, UniProt P36544), provide EC50 of CN(C)C(=O)CCn1nc(Nc2ccc(F)c(F)c2)cc1-c1cccnc1 please.
4.27

For hα7-wt nAChR (Homo sapiens, UniProt P36544), provide EC50 of COCc1cc(-c2cc(Nc3cccc(Cl)c3)nn2CCC(=O)N(C)C)ccn1 please.
0.437

For hα7-wt nAChR (Homo sapiens, UniProt P36544), provide EC50 of CC[C@H](O)Cn1nc(Nc2cccc(Cl)c2)cc1-c1ccnc(COC)c1 please.
0.646

For hα7-wt nAChR (Homo sapiens, UniProt P36544), provide EC50 of Cc1cc(-c2cc(Nc3cccc(Cl)c3)nn2CC(=O)NC2CC2)ccn1 please.
1

For hα7-wt nAChR (Homo sapiens, UniProt P36544), provide EC50 of COc1cc(Nc2cc(-c3ccnc(C)c3)n(CC(=O)NC3CC3)n2)cc(C(F)(F)F)c1 please.
2.69

For hα7-wt nAChR (Homo sapiens, UniProt P36544), provide EC50 of CNC(=O)Cn1nc(Nc2cccc(Cl)c2F)cc1-c1cc(C)nc(C)c1 please.
0.562

For hα7-wt nAChR (Homo sapiens, UniProt P36544), provide EC50 of CNC(=O)Cn1nc(Nc2ccc3c(c2)OC(F)(F)O3)cc1-c1ccnc(COC)c1 please.
1.51

###

Exercise: for every item that follows, state its recorded PAM type.
Target: hα7-wt nAChR-expressing GH4C1 cells (Homo sapiens)
Construct: expressed in transfected cells
Sequence (P36544 23-502): as above
Test: Patch-clamp current recording (whole-cell voltage clamp), potentiation of the choline current and PAM type
Format: cell-based
Parameters: key: Type 0 compounds minimally enhance the effect size of the current elicited by 1 mM choline.; Type 1 compounds enhance the effect size of the current elicited by 1 mM choline but minimally alter the kinetics of the receptor.; Type 2 compounds enhance the effect size of the current elicited by 1 mM choline while reducing the rate and/or the extent of desensitization.; Type 3 compounds enhance the effect size of the current elicited by 1 mM choline. When tested at higher concentrations up to 10 μM they completely inhibit desensitization, in particular a 1 mM choline application of 250 milliseconds.; Type 4 compounds allow for an initial desensitization of the receptor followed by a re-opening of the receptor during agonist application
Details: 1 mM choline
Quick one: just the number, no unit, thanks!

For hα7-wt nAChR-expressing GH4C1 cells (Homo sapiens), provide PAM type of CCNc1cc(-c2cc(Nc3ccc(F)c(F)c3)nn2C[C@H](C)O)ccn1 please.
1

For hα7-wt nAChR-expressing GH4C1 cells (Homo sapiens), provide PAM type of CCNC(=O)Cn1nc(Nc2ccc3c(c2)OC(F)(F)O3)cc1-c1cc(C)nc(C)c1 please.
2

For hα7-wt nAChR-expressing GH4C1 cells (Homo sapiens), provide PAM type of CCOC(=O)Cn1nc(Nc2ccc(F)c(F)c2)cc1-c1ccc2c(c1)OCCO2 please.
2

For hα7-wt nAChR-expressing GH4C1 cells (Homo sapiens), provide PAM type of CNC(=O)Cn1nc(Nc2cccc(Cl)c2)cc1-c1cc(C)nc(C)c1 please.
2

For hα7-wt nAChR-expressing GH4C1 cells (Homo sapiens), provide PAM type of Cc1cc(-c2cc(Nc3ccc4c(c3)OC(F)(F)O4)nn2CC(=O)NCC2CC2)ccn1 please.
2

For hα7-wt nAChR-expressing GH4C1 cells (Homo sapiens), provide PAM type of Cc1cc(-c2cc(Nc3ccc(F)c(C(F)(F)F)c3)nn2C[C@H](C)O)ccn1 please.
1

For hα7-wt nAChR-expressing GH4C1 cells (Homo sapiens), provide PAM type of CC[C@H](O)Cn1nc(Nc2cc(F)cc(F)c2)cc1-c1ccnc(COC)c1 please.
1

For hα7-wt nAChR-expressing GH4C1 cells (Homo sapiens), provide PAM type of CC[C@H](O)Cn1nc(Nc2ccc(F)c(F)c2)cc1-c1ccnc(COC)c1 please.
2
